Biological target: D(1A) dopamine receptor (Homo sapiens) (UniProt P21728)
Sequence (P21728 whole entry, looked up): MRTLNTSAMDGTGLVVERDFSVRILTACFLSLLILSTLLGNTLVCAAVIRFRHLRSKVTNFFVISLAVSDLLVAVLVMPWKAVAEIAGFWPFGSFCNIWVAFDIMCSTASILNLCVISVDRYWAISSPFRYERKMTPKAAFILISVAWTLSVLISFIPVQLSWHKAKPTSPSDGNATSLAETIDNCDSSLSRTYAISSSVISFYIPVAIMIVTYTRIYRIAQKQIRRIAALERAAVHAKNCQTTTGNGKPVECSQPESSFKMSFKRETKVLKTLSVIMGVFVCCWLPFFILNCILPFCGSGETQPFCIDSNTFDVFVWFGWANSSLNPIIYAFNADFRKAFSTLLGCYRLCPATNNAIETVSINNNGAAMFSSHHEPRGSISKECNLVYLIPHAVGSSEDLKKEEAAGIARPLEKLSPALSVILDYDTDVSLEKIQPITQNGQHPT
Assay: D1 CRE-luciferase signal change, two-sided – cell-based, HEK293 D1, dopamine EC30, D1 allosteric modulator project, primary screen (AID 641)
Settings: dopamine EC30 potentiation, at 10 µM, actives deviate in either direction
About 3,400 (5.9%) of roughly 58,000 compounds were called active. For the sample, actives were picked, then their nearest neighbours and some compounds at random.
# key: entry, value: B-score
Number, no unit, nothing else.

Some compounds with recorded B-score:
COc1ccc(OC)c(N=Cc2c(O)[nH]c3ccccc23)c1    1.65
CC(C)C(=O)Nc1cccc(C(=O)Nc2ccc3c(c2)OCO3)c1    -3.26
COc1ccc(N2CCN(C(c3cc4ccc(C)cc4[nH]c3=O)c3nnnn3C3CCCC3)CC2)cc1 (stereo not given)    0.0349

Look at this compound and give its reported B-score. CCOC(=O)c1sc(NC(=O)C(CC)Sc2nccn2C)nc1C (stereo not given)
0.947

Consider the compound CCOC(=O)C1CCCN(C(=O)c2cncc(Br)c2)C1 (stereo not given) and give its measured B-score.
0.42

Reported B-score, compound "COc1ccc(N=Cc2c(O)[nH]c3ccccc23)cc1OC" : ____
-2.18

Which measured B-score value corresponds to CCOC(=O)C1CCCN(C(=O)c2sc3nc(C)nc(N4CCOCC4)c3c2C)C1 (stereo not given) ?
-3.4
